- subject of test: bdSUMO Mut11-MBP fusion protein
metric: cleavage of the SUMO fusion protein

1. hsSENP2 (protein) EFPEITEEMEKEIKNVFRNGNQDEVLSEAFRLTITRKDIQTLNHLNWLNDEIINFYMNMLMERSKEKGLPSVHAFNTFFFTKLKTAGYQAVKRWTKKVDVFSVDILLVPIHLGVHWCLAVVDFRKKNITYYDSMGGINNEACRILLQYLKQESIDKKRKEFDTNGWQLFSKKSQEIPQQMNGSDCGMFACKYADCITKDRPINFTQQHMPYFRKRMVWEILHRKLL = resistant
2. bdSENP1 from B. distachyon (protein) PFVPLTDEDEDNVRHALGGRKRSETLSVHEASNIVITREILQCLNDKEWLNDEVINLYLELLKERELREPNKFLKCHFFNTFFYKKLINGGYDYKSVRRWTTKRKLGYNLIDCDKIFVPIHKDVHWCLAVINIKEKKFQYLDSLGYMDMKALRILAKYLVDEVKDKSGKQIDVHAWKQEGVQNLPLQENGWDCGMFMLKYIDFYSRDMELVFGQKHMSYFRRRTAKEILDLKAG = < 25 % cleavage
3. bdSENP1^MutG (protein) PFVPLTDEDEDNVRHALGGRKSSETLSVHEASHIVITREILQCLNDKEWLNDEVINLYLELLKERELREPNKFLKCHFFNTFFYKKLINGGYDYKSVRRWTTVKLGYNLIDCDKIFVPIHKDVHWCLAVINIKEKKFQYLDSLGYMDMKALRILAKYLVDEVKDKSGKQIDVHAWKQEGVQNLPLQENGWDCGMFMLKYIDFYSRDMELVFGQKHMSYFRRRTAKEILDLKAG = < 75 % cleavage
4. SUMOstar protease (protein) LVPELNEKDDDQVQKALASRENTQLMNRDNIEITVRDFKTLAPRRWLNSGIISFFMKYIEKSTPNTVAFNSFFYTNLSERGYQGVRRWMKRKKTQIDKLDKIFTPINLNQSHWALGIIDLKKKTIGYVDSLSNGPNAMSFAILTDLQKYVMEESKHTIGEDFDLIHLDCPQQPNGYDCGIYVCMNTLYGSADAPLDFDYKDAIRMRRFIAHLILTDALK = resistant
